Each item that follows carries a reported TGI.
tested on: DLD-1 colon; assay: NCI tumour cell line growth inhibition, 48 h
measure: TGI

In [3]: df
Out[3]:
                                    molecule  study_system  measure  observed_value
 0  COC(=O)/C(=N\Nc1nnc(C)n1N)C(C#N)c1ccccc1 (stereo not drawn)   DLD-1 colon      TGI        > 100 µM
 1            COc1ccc2c(c1)c1c3n2CCNN=C3CCC1   DLD-1 colon      TGI        > 100 µM
 2               O=CCCCC(Sc1ccccc1)Sc1ccccc1   DLD-1 colon      TGI         31.6 µM
 3  CCOC(=O)C(C)N1C(=O)c2ccccc2S1(=O)=O (stereo not drawn)   DLD-1 colon      TGI        > 100 µM
 4                    C#CCOCn1cnc2ncnc(N)c21   DLD-1 colon      TGI        > 100 µM
 5  CC(C)(C)Sc1nnc(SC(C)(C)C)c2c(=O)[nH]nc(SC(C)(C)C)c12   DLD-1 colon      TGI         22.8 µM
 6  c1ccc(-c2ccnc3c2ccc2c(-c4ccccc4)ccnc23)cc1   DLD-1 colon      TGI         15.3 µM
 7       C(=C/c1nc2ccccc2o1)/c1ccc2c(c1)OCO2   DLD-1 colon      TGI        > 100 µM
 8  CC(=O)Nc1ccc(-c2nnc(SCC(=O)Nc3ccc(Cl)cc3)o2)cc1   DLD-1 colon      TGI         27.9 µM
 9  O=C(/C=C/C1C(=O)NC(=O)NC1=O)CC(=O)C(=O)Nc1cc(Cl)c(Cl)cc1Cl   DLD-1 colon      TGI        > 100 µM
10  CC(=O)c1c2c(cc3c1CC1(C3)Cc3cc4c(c(C(=O)O)c3C1)CCC4)CCC2 (stereo not drawn)   DLD-1 colon      TGI        > 100 µM
11     CN(C)CN(C)c1nc(N(C)C)nc(N(C)CN(C)C)n1   DLD-1 colon      TGI        > 100 µM
12  O=C(CCC1CCCCN1)Nc1ccc2c(c1)C(=O)c1ccc(NC(=O)CCN3CCCCC3)cc1C2=O (stereo not drawn)   DLD-1 colon      TGI         6.37 µM
13  CC(=O)NC(CCCN(Cc1ccccc1)C(=O)N(C)N=O)C(=O)NCc1ccccc1 (stereo not drawn)   DLD-1 colon      TGI        > 100 µM
14  Cn1nc(-c2ccccc2)c(C(=O)/C=C/c2ccc(Cl)cc2)c(N2CCCC2)c1=O   DLD-1 colon      TGI         10.8 µM
15  c1ccc(-c2nnc3nn4c(-c5ccccc5)cnnc4c3c2-c2ccccc2)cc1   DLD-1 colon      TGI        > 100 µM
16  O=S1(=O)c2ccccc2N=C(c2ccccc2Cl)CC1c1ccc(F)cc1 (stereo not drawn)   DLD-1 colon      TGI         28.6 µM
17                     CC(=O)OC(=O)O/C=C\CCl   DLD-1 colon      TGI        > 100 µM

----------
test system: SF-295 CNS; test: NCI tumour cell line growth inhibition, 48 h
TGI reference

compound	TGI
c1cc2c(cc1C1=NCCN1)c1cc(C3=NCCN3)ccc1n2CC1CCCCC1	> 100 µM
C(=C/c1nc2ccccc2o1)/c1ccc2c(c1)OCO2	23.1 µM
CC(C)NC(=O)OCc1c(COC(=O)NC(C)C)c(-c2cc[n+](COC(=O)C3CCCCC3)cc2)n2c1CCC2	> 100 µM
O=C(Cc1ccccc1)NN1C(=O)/C(=C\c2ccccc2O)SC1=Nc1ccccc1	> 100 µM
CC/C(N)=N\NC(=O)OC(C)(C)C	> 100 µM
O=C(/C=C/c1ccc([N+](=O)[O-])cc1)c1cccc(Nc2nc(Nc3ccccc3)nc(Nc3ccccc3)n2)c1	> 100 µM
CC(C)=NOC(=O)Nc1cccc2c1OCO2	> 100 µM
CN1CN(C(=O)N2CN(C)C(=O)N(C)C2)CN(C)C1=O	> 100 µM
CC(=O)OCC1OC(n2c(-c3ccccc3)c(N=Nc3ccc(C)cc3)c(C)c(C#N)c2=S)C(OC(C)=O)C(OC(C)=O)C1OC(C)=O (stereo not given)	97.2 µM
NS(=O)(=O)c1ccc(N=Nc2ccc(O)c(C(=O)O)c2)cc1	> 100 µM
C[C@H](CCC(=O)NCC(=O)O)[C@H]1CC[C@H]2[C@@H]3[C@H](O)C[C@@H]4C[C@H](O)CC[C@]4(C)[C@H]3CC[C@]12C	> 100 µM
O=C(CCCCCCCCC(=O)N/N=C\c1cc(Cl)ccc1O)N/N=C\c1cc(Cl)ccc1O	> 46.5 µM
COc1ccc(C)cc1C1CCC(=O)O1 (stereo not given)	> 100 µM
Nc1cc2c3c(cccc3c1)C(=O)N(c1ccc(OCCN3CCCC3)cc1)C2=O	27.4 µM
N#CC(C(=O)CCCC(=O)Nc1ccc(Cl)cc1Cl)c1ccc(Cl)cc1 (stereo not given)	> 100 µM
Cn1cc(-c2nc(N[C@@H]3CCCC[C@@H]3N)c(F)c3c2C(=O)NC3)cn1	> 77.2 µM
C=C1C(=O)OC2C3OC(C)(CCC(O)C3COC(C)=O)CC(OC(=O)/C(=C/C)COC(C)=O)C12 (stereo not given)	22.3 µM
CCCOC(=O)C1C2CCC(O2)C1C(=O)O (stereo not given)	> 100 µM
COc1cccc2c1cc1c3c(cc4c(c32)OCO4)C(=O)N1	29.1 µM
Cn1cc(C2=C(c3cn(CCCCC(=N)N)c4ccccc34)C(=O)NC2=O)c2ccccc21	> 25 µM
COc1cc(C(C#N)NNc2nc(C)cc(=O)[nH]2)cc(OC)c1OC (stereo not given)	> 100 µM
O=Cc1ccc(N2CCN(c3ccc(C=O)cc3)CC2)cc1	> 100 µM
S=c1c2ccccc2c(=S)n2n1CC=CC2	> 100 µM
O=[N+]([O-])/C(C(Cl)=C(Cl)Cl)=C(/Nc1ccccc1)Sc1ccccc1	47.5 µM
O=c1[nH]c2ccc([N+](=O)[O-])cc2nc1/C=C(\O)c1ccccc1	> 100 µM
COC(=O)C(NC(=O)OC(C)(C)C)P(=O)(OC)OC (stereo not given)	> 100 µM
Cc1noc(/N=C2\C=C(Nc3onc(C)c3C)C(=O)c3ccccc32)c1C	> 100 µM
CCOc1cc2c(cc1O)C(N)C[C@@H]1[C@@H]2CC[C@]2(C)[C@@H](O)CC[C@@H]12 (stereo not given in full)	> 100 µM
O=C1/C(=C\c2ccccc2)C2OCC=C3CN4CCC56c7ccccc7N1C5C2C3CC46 (stereo not given)	24.7 µM
COC(=O)C(C(=O)C(N)=O)c1csc(-n2nc(-c3ccccc3)cc2-c2ccccc2)n1 (stereo not given)	> 100 µM
O=C1C=C(N2CCN(CCOCCO)CC2)C(=O)c2c(O)ccc(O)c21	27.8 µM
O=C(/C=C/c1cccc2ccccc12)Nc1ncc(Cc2ccccc2)s1	2.33 µM
CC/C(=C\c1ccc(OC)cc1)c1ccc(OC)cc1	> 100 µM
COC1CC(OC2C(C)OC(OC3C(C)OC(OC4C(C)OC(O[C@H]5CC[C@@]6(C)C(=CC[C@]7(O)[C@@H]6C[C@@H](O)[C@@]6(C)[C@]7(O)CC[C@@]6(O)C(C)=O)C5)CC4OC)CC3OC)CC2OC)OC(C)C1O (stereo not given in full)	> 12.5 µM
C/C(CC(=O)Nc1cccc([N+](=O)[O-])c1)=N\NC(=O)CC#N	> 100 µM
O=c1[nH]cc(C(F)(C(F)(F)F)C(F)(F)F)c(=O)[nH]1	> 100 µM
CCCCNC1=C(C(=O)OCC)/C(=N/NC(=O)c2ccccc2O)CO1	> 100 µM
NNC(=O)C(O)C(O)C(=O)NN (stereo not given)	> 100 µM
Cc1cc(Br)cc(C)c1NC(=O)C(=O)Nn1c(=S)[nH]c2ccccc2c1=O	> 100 µM
CN(C)CCNC(=O)c1c(O)ccc2c1c1c(n2CCc2ccccc2)C(=O)c2ccccc2C1=O	15.9 µM

----------
test system: NCI-H226 lung; experiment: NCI tumour cell line growth inhibition, 48 h
measure: GI50

>>> print(df.to_string())
                                   compound  measure  observed_value
0  O=C(CCCCCCCCC(=O)N/N=C\c1cc(Cl)ccc1O)N/N=C\c1cc(Cl)ccc1O     GI50          500 nM
1  COc1ccc(C2=NC(c3ccc(Cl)cc3)C(c3ccc(Cl)cc3)N2C(=O)N2CCNC(=O)C2)c(OC(C)C)c1 (stereo not drawn)     GI50         2080 nM
2  COc1ccc(C2=Nc3c/c(=C\c4c(O)[nH]c5cc(Cl)ccc45)ccc3=N2)cc1     GI50     > 100000 nM
